Molecular target: Tyrosine-protein kinase ABL1 (Homo sapiens)
Conditions: at 0.1 µM
Description: GSK_PKIS: ABL1 mean inhibition at 0.1 uM [Nanosyn]
Kindly supply the reported inhibition values for the records listed here.
Numbers only, in %.

Example cases with answers are listed next.
- compound: "Fc1ccc(-c2cc(-c3c[nH]nc3-c3ccccn3)ccn2)cc1"
  value measured: 4.06
- compound: "FC(F)(F)c1cccc(-c2nn3ncccc3c2-c2ccnc(Nc3ccc4c(c3)OCCO4)n2)c1"
  value measured: 3.95
- compound: "COc1cc2ncn(-c3cc(OCc4ccccc4C(F)(F)F)c(C(=O)N(C)C)s3)c2cc1OC"
  value measured: 2.99
- compound: "CC(=O)Nc1cccc(C#Cc2cncnc2Nc2ccc(OCc3cccc(F)c3)c(Cl)c2)c1"
  value measured: 4.43
- compound: "CCN1CCC(CC(=O)Nc2n[nH]c3nnc(-c4cccc(F)c4F)cc23)CC1"
  value measured: 4

Items follow; give inhibition for each.
1. [O-][S+]1CCN(Cc2ccc(-c3ccc4ncnc(Nc5ccc(OCc6cccc(F)c6)c(Cl)c5)c4c3)o2)CC1
2. CS(=O)(=O)CCNCc1coc(-c2ccc3ncnc(Nc4ccc(OCc5ccccc5)cc4)c3c2)c1
3. CC1=C(C(=O)Nc2cc(Cl)c3[nH]ncc3c2)C(c2ccc(C(F)(F)F)cc2)CC(=O)N1 (centres undefined)
4. CC(=O)NCc1cccc(C#Cc2cncnc2Nc2ccc(OCc3cccc(F)c3)c(Cl)c2)c1

2.52
4.85
2.62
-0.31

* * *

Biological target: Serine/threonine-protein kinase PAK 5 (Homo sapiens);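 note: values are mean percent inhibition of PAK5 from a kinase inhibitor set screen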
Conditions: at 0.1 µM
observed property: inhibition
Form field: result (number plus unit)

Example cases with answers are listed next.
- compound structure string: "FC(F)(F)c1cccc(-c2nn3ncccc3c2-c2ccnc(Nc3ccc4c(c3)OCCO4)n2)c1"
  target of assay: "Serine/threonine-protein kinase PAK 5 (Homo sapiens)"
  value measured: "-5.89%"
- compound structure string: "Fc1ccc(-c2nn3ncccc3c2-c2ccnc(Nc3ccc4c(c3)OCCO4)n2)cc1"
  target of assay: "Serine/threonine-protein kinase PAK 5 (Homo sapiens)"
  value measured: "-1.83%"
- compound structure string: "c1ccc(COc2ccc(Nc3ncnc4ccc(-c5ccco5)cc34)cc2)cc1"
  target of assay: "Serine/threonine-protein kinase PAK 5 (Homo sapiens)"
  value measured: "-1.27%"
- compound structure string: "COc1ccc(-c2cc(-c3c[nH]nc3-c3ccccn3)ccn2)cc1"
  target of assay: "Serine/threonine-protein kinase PAK 5 (Homo sapiens)"
  value measured: "3.54%"
- compound structure string: "CCn1c(-c2nonc2N)nc2c(C#CC(C)(C)O)ncc(OC3CCNCC3)c21"
  target of assay: "Serine/threonine-protein kinase PAK 5 (Homo sapiens)"
  value measured: "34.6%"

What is its inhibition for Serine/threonine-protein kinase PAK 5 (Homo sapiens)? Entry: `O=S(=O)(CCNCc1ccc(-c2ccc3ncnc(Nc4ccc(OCc5cccc(F)c5)c(Cl)c4)c3c2)o1)c1ccccc1`
4.32%

* * *

Tested on: Epidermal growth factor receptor (Homo sapiens), P00533 [T790M]
Sequence (P00533 whole entry T790M): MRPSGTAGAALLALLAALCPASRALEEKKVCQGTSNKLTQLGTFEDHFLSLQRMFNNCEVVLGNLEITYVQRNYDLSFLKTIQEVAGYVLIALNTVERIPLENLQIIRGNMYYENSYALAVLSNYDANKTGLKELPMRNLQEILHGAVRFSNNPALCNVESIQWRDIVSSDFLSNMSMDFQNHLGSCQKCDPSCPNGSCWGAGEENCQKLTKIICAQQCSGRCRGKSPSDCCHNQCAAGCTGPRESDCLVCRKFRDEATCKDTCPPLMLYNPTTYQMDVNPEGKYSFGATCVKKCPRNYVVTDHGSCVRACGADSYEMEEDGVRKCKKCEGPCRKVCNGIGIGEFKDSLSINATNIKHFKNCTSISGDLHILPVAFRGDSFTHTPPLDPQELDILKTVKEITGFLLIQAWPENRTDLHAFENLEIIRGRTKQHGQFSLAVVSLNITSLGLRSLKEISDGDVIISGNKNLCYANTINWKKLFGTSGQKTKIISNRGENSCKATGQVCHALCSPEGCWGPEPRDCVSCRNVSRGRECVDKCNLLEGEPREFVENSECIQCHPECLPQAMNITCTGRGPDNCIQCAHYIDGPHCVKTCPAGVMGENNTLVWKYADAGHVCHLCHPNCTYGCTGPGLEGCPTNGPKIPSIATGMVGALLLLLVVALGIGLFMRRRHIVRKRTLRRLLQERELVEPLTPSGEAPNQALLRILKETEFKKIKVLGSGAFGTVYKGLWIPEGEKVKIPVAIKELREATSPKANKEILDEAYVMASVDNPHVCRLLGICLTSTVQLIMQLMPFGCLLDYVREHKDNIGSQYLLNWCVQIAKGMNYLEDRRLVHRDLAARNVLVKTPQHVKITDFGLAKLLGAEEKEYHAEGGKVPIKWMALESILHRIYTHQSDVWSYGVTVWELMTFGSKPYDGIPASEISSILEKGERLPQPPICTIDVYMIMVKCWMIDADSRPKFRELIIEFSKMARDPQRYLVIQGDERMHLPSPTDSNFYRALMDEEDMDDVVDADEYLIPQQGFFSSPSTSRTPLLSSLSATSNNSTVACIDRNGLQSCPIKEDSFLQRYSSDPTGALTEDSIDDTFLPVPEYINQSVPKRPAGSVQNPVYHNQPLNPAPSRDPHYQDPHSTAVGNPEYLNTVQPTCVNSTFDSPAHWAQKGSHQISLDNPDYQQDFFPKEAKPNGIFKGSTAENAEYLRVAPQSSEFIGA
Conditions: at 1 µM
observed property: inhibition (%)
Answers are plain numbers, in %.

Example cases with answers are listed next.
- compound structure string: "CCOc1ccc2c(-c3ccnc(Nc4cccc(C(F)(F)F)c4)n3)cnn2n1"
  observed property: "inhibition"
  value measured: -0.36
- compound structure string: "CS(=O)(=O)CCNCc1ccc(-c2ccc3ncnc(Nc4ccc(OCc5ccccc5)c(C(F)(F)F)c4)c3c2)o1"
  observed property: "inhibition"
  value measured: 2.12
- compound structure string: "COc1ccc(-c2nn3ncccc3c2-c2ccnc(Nc3ccc4c(c3)OCCO4)n2)cc1"
  observed property: "inhibition"
  value measured: 5.19
- compound structure string: "COc1cccc(-n2ncc3c(N/N=C/c4ccc(F)cc4)ncnc32)c1"
  observed property: "inhibition"
  value measured: 3.89
- compound structure string: "CCN(CC)S(=O)(=O)c1ccc(OC)c(Nc2ncc(-c3ccccc3)o2)c1"
  observed property: "inhibition"
  value measured: 2.04
- compound structure string: "CS(=O)(=O)CCNCc1coc(-c2ccc3ncnc(Nc4ccc(OCc5ccccc5)cc4)c3c2)c1"
  observed property: "inhibition"
  value measured: 10.3
- compound structure string: "CCCN1CCC(c2ccc(Nc3nc(Nc4cc(F)ccc4C(N)=O)c4cc[nH]c4n3)c(OC)c2)CC1"
  observed property: "inhibition"
  value measured: 81.7
- compound structure string: "CC(C)COC(=O)c1ccc2c(c1)/C(=C/Nc1ccc(S(N)(=O)=O)cc1)C(=O)N2"
  observed property: "inhibition"
  value measured: -2.28

Now consider a different compound.
What is its inhibition for Epidermal growth factor receptor (Homo sapiens), P00533 [T790M]? Entry: `COc1ccc(-c2cc(-c3c[nH]nc3-c3ccccn3)ccn2)cc1`
4.53
